target: UniProtKB Q07817; assay: Inhibition of Bcl-XL (disruption of Bcl-XL/Bim interaction); type: binding
Sequence (Q07817 whole entry, species assumed): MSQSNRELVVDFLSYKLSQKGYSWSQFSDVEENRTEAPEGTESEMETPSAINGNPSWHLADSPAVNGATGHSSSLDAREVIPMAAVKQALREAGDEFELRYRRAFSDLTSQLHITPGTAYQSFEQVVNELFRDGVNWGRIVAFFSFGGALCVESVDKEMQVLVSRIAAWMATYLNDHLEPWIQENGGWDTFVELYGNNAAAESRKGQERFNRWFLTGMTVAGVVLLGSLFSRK
assay_readout: IC50 (µM)

These recorded examples may help you get a feel for the data.
- substance_smiles: "O=C(NS(=O)(=O)c1ccc(CN(CCSc2ccccc2)Cc2ccc3c(c2)OCO3)cc1)c1ccc(CCc2ccccn2)cc1"
  measurement_unit: "µM"
  IC50: 31.3
- substance_smiles: "COc1cc(OC)cc(C(=O)NS(=O)(=O)c2ccc(CN(CCSc3ccccc3)Cc3ccc(S(=O)(=O)N=[N+]=[N-])cc3)cc2)c1"
  measurement_unit: "µM"
  IC50: 36
- substance_smiles: "CC1(C)CCN(c2ccc(C(=O)NS(=O)(=O)c3ccc(CN(CCSc4ccccc4)Cc4ccc(S(N)(=O)=O)cc4)cc3)cc2)CC1"
  measurement_unit: "µM"
  IC50: 44
- substance_smiles: "COc1cc(OC)cc(C(=O)NS(=O)(=O)c2ccc(CN(CCSc3ccccc3)Cc3c(F)cccc3Cl)cc2)c1"
  measurement_unit: "µM"
  IC50: 53
- substance_smiles: "O=C(NS(=O)(=O)c1ccc(NCCSc2ccccc2)c([N+](=O)[O-])c1)c1ccc(CCc2ccccn2)cc1"
  measurement_unit: "µM"
  IC50: 2.08

P: CC1(C)CCN(c2ccc(C(=O)NS(=O)(=O)c3ccc4ccc(S(=O)(=O)NCCSc5ccccc5)cc4c3)cc2)CC1
Q: O=C(NS(=O)(=O)c1ccc(CN(CCSc2ccccc2)Cc2c(F)cccc2Cl)cc1)c1ccc(OC(F)(F)F)cc1
## Input Compare IC50: is it lower for P or for Q ? // output: label of the selected item
## Output P

* * *

target: Mcl-1 (Homo sapiens, UniProt Q07820); test: Inhibition of Mcl-1 (disruption of Mcl-1/Bim interaction)
Sequence (Q07820 whole entry, species assumed): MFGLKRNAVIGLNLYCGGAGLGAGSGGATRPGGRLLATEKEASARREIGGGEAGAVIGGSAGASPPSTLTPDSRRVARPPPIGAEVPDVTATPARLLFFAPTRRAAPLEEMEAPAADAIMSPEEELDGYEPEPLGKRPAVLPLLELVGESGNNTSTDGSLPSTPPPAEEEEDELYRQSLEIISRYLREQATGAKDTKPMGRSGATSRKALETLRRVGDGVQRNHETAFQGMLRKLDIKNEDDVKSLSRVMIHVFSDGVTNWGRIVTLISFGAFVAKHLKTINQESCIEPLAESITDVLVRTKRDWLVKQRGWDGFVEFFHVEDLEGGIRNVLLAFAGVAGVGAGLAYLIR
pIC50: −log10 of the molar value.
assay_readout: pIC50

- substance_smiles: "O=C(NS(=O)(=O)c1ccc(CN(CCSc2ccccc2)Cc2c(F)cccc2Cl)cc1)c1cccc2ccccc12"
  study_system: "Mcl-1 (Homo sapiens, UniProt Q07820)"
  pIC50: 4.81
- substance_smiles: "CC1(C)CCN(c2ccc(C(=O)NS(=O)(=O)c3ccc(CN(CCSc4ccccc4)Cc4ccc(S(N)(=O)=O)cc4)cc3)cc2)CC1"
  study_system: "Mcl-1 (Homo sapiens, UniProt Q07820)"
  pIC50: 4.80
- substance_smiles: "O=C(NS(=O)(=O)c1ccc(CN(CCSc2ccccc2)Cc2ccc3c(c2)OCO3)cc1)c1ccc(CCc2ccccn2)cc1"
  study_system: "Mcl-1 (Homo sapiens, UniProt Q07820)"
  pIC50: 4.77
- substance_smiles: "Cn1cc(C(=O)C2CCCCC2)c2cc(C(=O)NS(=O)(=O)c3ccc(-c4ccc(C(C)(C)C)cc4)cc3)ccc21"
  study_system: "Mcl-1 (Homo sapiens, UniProt Q07820)"
  pIC50: 4.66
- substance_smiles: "COc1cc(OC)cc(C(=O)NS(=O)(=O)c2ccc(CN(CCSc3ccccc3)Cc3c(F)cccc3Cl)cc2)c1"
  study_system: "Mcl-1 (Homo sapiens, UniProt Q07820)"
  pIC50: 4.87
- substance_smiles: "O=C(Cn1c2ccccc2c2ccccc21)NS(=O)(=O)c1ccc(CN(CCSc2ccccc2)Cc2ccc3c(c2)OCO3)cc1"
  study_system: "Mcl-1 (Homo sapiens, UniProt Q07820)"
  pIC50: 4.85
- substance_smiles: "[N-]=[N+]=NS(=O)(=O)c1ccc(CN(CCSc2ccccc2)Cc2ccc(S(=O)(=O)NC(=O)c3cccc4ccccc34)cc2)cc1"
  study_system: "Mcl-1 (Homo sapiens, UniProt Q07820)"
  pIC50: 5.09
- substance_smiles: "[N-]=[N+]=NS(=O)(=O)c1ccc(CN(CCSc2ccccc2)Cc2ccc(S(=O)(=O)NC(=O)c3ccccc3)cc2)cc1"
  study_system: "Mcl-1 (Homo sapiens, UniProt Q07820)"
  pIC50: 4.70
